assay: chemical genetic growth profiling, strain panel (AID 1159580);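 note: tested at 20 µM; growth read once vehicle control cultures reached saturation at 30 °C; 1 = growth at the plate median or of vehicle wells; lower values mean less growth of the strain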; conditions: S. cerevisiae deletion strains, growth OD, locus YDL108W, strain KIN28, stronger effect = lower value
About 2,000 (36%) of roughly 5,500 compounds were called active. About 18% were inconclusive and are not listed. This is one part of the list.
Property name: normalized growth
Numbers only.

Consider the worked cases shown below.
1) O=C1c2ccccc2C(=O)c2sccc21	0.752
2) O=[N+]([O-])c1ccc(NCc2ccc(Cl)c(Cl)c2)nc1	0.942

Prompt: Given the entry COC(=O)c1cc([N+](=O)[O-])ccc1S(=O)(=O)Cc1ccc(Cl)cc1 , report its measured normalized growth.
Completion: 0.988
